Biological target: UniProtKB Q16539
Sequence (Q16539 whole entry): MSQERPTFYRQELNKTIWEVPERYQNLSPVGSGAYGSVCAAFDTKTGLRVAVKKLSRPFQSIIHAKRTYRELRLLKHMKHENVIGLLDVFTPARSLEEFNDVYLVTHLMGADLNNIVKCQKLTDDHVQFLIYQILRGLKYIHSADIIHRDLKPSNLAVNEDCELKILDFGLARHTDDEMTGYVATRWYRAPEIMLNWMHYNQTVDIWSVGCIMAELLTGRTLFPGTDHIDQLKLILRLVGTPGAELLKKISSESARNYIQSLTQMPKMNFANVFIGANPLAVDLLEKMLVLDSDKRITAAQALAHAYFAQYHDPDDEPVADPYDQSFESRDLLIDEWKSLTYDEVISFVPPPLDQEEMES
Recorded IC50 determines the label; the label ranges are low bracket = under 0.8 nM, middle bracket = from 0.8 nM up to 10 nM, high bracket = 10 nM and over

1. Cc1ccc(C(=O)NC2CC2)cc1-c1ccc2c(c1)NC(=O)C21CCC(F)(F)CC1 [Example 32]    middle bracket
2. Cc1nnc(-c2ccc(C)c(-c3ccc4c(c3)NC(=O)C43CCCC3)c2)o1 [Example 70]    high bracket
3. Cc1nnc(-c2ccc(C)c(-c3ccc4c(c3)NC(=O)C43CCC(F)(F)CC3)c2)[nH]1 [Example 63]    middle bracket
4. Cc1ccc(C(=O)Nc2ccon2)cc1-c1ccc2c(c1)NC(=O)C21CCOCC1 [Example 23]    low bracket
5. Cc1ccc(C(=O)NC2CC2)cc1-c1cnc2c(c1)NC(=O)C21CCOCC1 [Example 47]    high bracket
6. Cc1nnc(-c2ccc(C)c(-c3ccc4c(c3)NC(=O)C43CCC3)c2)[nH]1 [Example 54]    high bracket
7. Cc1nnc(-c2cc(F)c(C)c(-c3ccc4c(c3)NC(=O)C43CCOCC3)c2)[nH]1 [Example 61]    middle bracket
8. Cc1ccc(-c2ncn[nH]2)cc1-c1ccc2c(c1)NC(=O)C21CCCC1 [Example 55]    middle bracket

Now take the following molecule into account.
Determine which band this molecule sits in: Cc1ccc(C(=O)Nc2ccon2)cc1-c1ccc2c(c1)NC(=O)C2(C)C [Example 19] low bracket
